- Tested on: EKVX NSCLC
- method.notes: NCI-60 one-dose screen, 48 h
- cond: 10 µM unless noted
Compounds without any hit were thinned out: in the full panel of roughly 83,000, 20% have a hit. Active and inactive are the calls of the source. Rule for the calls: active = growth percent below 10; inactive = the rest.
Outcome codes: active, inactive

| compound | category |
| --- | --- |
| O=c1cc(Cl)[nH]c(=O)[nH]1 | inactive |
| COc1cc(C(=O)C[n+]2ccccc2)ccc1OC(C)=O | inactive |
| O=C(NCCNc1nccc(-c2c(-c3cccc(O)c3)nc3sccn23)n1)Nc1cc(C(F)(F)F)cc(C(F)(F)F)c1 | inactive |
| Cc1nssc1=S | inactive |
| Clc1ccc(CN2COc3c(ccc4cccnc34)C2)cc1Cl | active |
| Cl[C@@H]1CCO[C@H](c2cc3ccccc3c3ccccc23)C1 | inactive |
| O=C(Cn1c2ccccc2c2ccncc21)N/N=C/c1c[nH]c2ccccc12 | inactive |
| Cc1ccn2cc(Cc3cc(=O)oc4c3ccc3ccccc34)c(=O)nc2c1 | inactive |
| CN(C)CCS(=O)(=O)Nc1cc(-c2ccc3ncnc(Nc4ccc(F)c(Cl)c4)c3c2)cnc1Cl | active |
| COc1ccc(C(=O)NC(=O)Nc2ccc3c(c2)NC(=O)/C3=C\c2[nH]c(C)c(C(=O)O)c2C)cc1 | inactive |
| Cc1ccc(N(CC2=NCCN2)c2cccc(O)c2)cc1 | inactive |
| COc1ccc(-c2nn(-c3ccc(NC(=O)c4cc(Cl)cc(Cl)c4)cc3)cc2-c2ccncc2)cc1Cl | inactive |
| O=C(Nc1ccccc1F)Nc1ccccc1Cl | inactive |
| CCc1cccc(C)c1NC(=O)c1sc2nc3c(cc2c1N)CCCCC3 | inactive |
| CCn1cc(/C=C2\Oc3cc(OCC#N)ccc3C2=O)c2cc(OC)ccc21 | inactive |
| O=C(Nc1ccc(-n2ccc3c(NC(=O)c4ccccc4)nccc32)cc1)c1ccc(Cl)c(C(F)(F)F)c1 | inactive |
| O=C(NCCNc1nccc(-c2c(-c3cccc(O)c3)nc3sccn23)n1)c1cc(N2CCOCC2)cc(C(F)(F)F)c1 | inactive |
| CC(C)(CCN=C(N)Nc1ccccn1)c1ccc(C(F)(F)F)cc1 | inactive |
| O=C(Cn1c2ccccc2c2ccncc21)N/N=C/c1cc(O)c(O)c(O)c1 | inactive |
| CN(CCNCc1ccccn1)CCNCc1ccccn1 | inactive |
| O=C(/C=C/c1ccco1)c1cccc(Nc2nc(Nc3ccccc3)nc(Nc3ccccc3)n2)c1 | inactive |
| OC(COc1ccccc1Cl)CN1CCN(c2ccc(Cl)cc2)CC1 (configuration not stated) | inactive |
